Residues, ends and D or L forms follow the SMILES beside them. *: point of attachment. OiPr = CC(C)O*
Assay readout: melting point

Some entries whose results are on file:
Compound	Assay readout	Value measured
CCCOc1nsc(NC(=O)NC)c1C(N)=O	melting point	195 to 198 °C
O=C(O)c1ccccc1Nc1c(O)ccc2ccccc12	melting point	214 to 217 °C

Entry CC(C)OC(=O)C(CO)NC(=O)C(CC(=O)O)NC(=O)C1CCCN1 (stereo not drawn) (H-Pro-Asp-Ser-OiPr; configuration not given here) — recorded melting point = 230 to 233 °C

Entry COC(=O)c1cc2c3cc(C(C)=O)ccc3n(C)c2s1 — recorded melting point = 196 to 198 °C

Entry COC(=O)C=Cc1c(O)cccc1C#CCCCCOC1CCCCO1 (racemic) — recorded melting point = 66 to 67.5 °C
